Value source: PubChem BioAssay (EPA / NIEHS)

- Read-out: Thyroid Hormone Responsive (THRSP), THRSP (gene 7069)
- test.protocol: LTEA_HepaRG_THRSP: Life Technologies and Expression Analysis (LTEA) Assay for Thyroid Hormone Responsive (THRSP) using HepaRG (AID 2283536)
- condition.notes: mRNA level, 48 h; actives raise or lower the signal
- Procedure: LTEA_HepaRG is a cell based, multiplexed-readout assay that uses HepaRG, a human liver cell line, with measurements taken at 48 hours after chemical dosing on a 96-well plate.LTEA_HepaRG_THRSP is one of 102 assay component(s) measured in the LTEA HepaRG cell culture assay. It is a marker of NR mediated metabolism.Data from the assay component LTEA_HepaRG_THRSP was analyzed into 1 endpoint. […]
Activity calls are given as the source filed them. Rule for the calls: active = hit-call score of the fitted dose curve at least 0.9, where 1 is the maximum; inactive = score below 0.9.
Output constraint: value belongs to active, inactive

Please review the following examples before continuing.
[
  {
    "molecule": "CCCCC(CC)CN1C(=O)C2C3C=CC(C3)C2C1=O (configuration not stated)",
    "answer.label": "active"
  },
  {
    "molecule": "O=C(c1ccccc1)C1CCCCC1",
    "answer.label": "inactive"
  },
  {
    "molecule": "Oc1ccc(C(c2ccc(O)cc2)C(Cl)(Cl)Cl)cc1",
    "answer.label": "inactive"
  },
  {
    "molecule": "CC(=O)[C@H]1CC[C@H]2[C@@H]3CCC4=CC(=O)CC[C@]4(C)[C@H]3CC[C@]12C",
    "answer.label": "inactive"
  },
  {
    "molecule": "CCCCCCC(C)OC(=O)COc1nc(F)c(Cl)c(N)c1Cl (configuration not stated)",
    "answer.label": "inactive"
  }
]

Given OB(O)O , state the outcome it received in this test.
inactive

Given CCSC(=O)N(CC(C)C)CC(C)C , state the outcome it received in this test.
inactive

###

- target.or.system: Bile acid receptor (Homo sapiens)
- test.protocol: OT_FXR_FXRSRC1_0480: Odyssey Thera (OT) 8-hour HEK293T Protein-Complementation Assay for Farnesoid X receptor/SRC-1 Co-activator (AID 2283383)
- Description: OT_FXR_FXRSRC1_0480 is a cell-based assay that uses HEK293T, a human kidney cell line, with measurements taken at 8 hours after chemical dosing in a 384-well plate.OT_FXR_FXRSRC1_0480 is one of one assay component(s) measured or calculated from the OT_FXR_FXRSRC1_0480 assay. […] This assay endpoint, OT_FXR_FXRSRC1_0480, was analyzed in the positive analysis fitting direction relative to DMSO as the negative control and baseline of activity. […]
Inconclusive results are not listed. Active and inactive are the calls of the source. How the source made its calls: active means hit-call score of the fitted dose curve at least 0.9, where 1 is the maximum; inconclusive means response in the unintended direction; inactive means score below 0.9.
Output constraint: value belongs to y (active), n (inactive)

Please review the following examples before continuing.
[
  {
    "compound": "O=C(O)C1(C(=O)Nc2ccc(Cl)cc2Cl)CC1",
    "target.or.system": "Bile acid receptor (Homo sapiens)",
    "answer.label": "n"
  },
  {
    "compound": "Cc1nn(C)c(Oc2ccccc2)c1C=NOCc1ccc(C(=O)OC(C)(C)C)cc1",
    "target.or.system": "Bile acid receptor (Homo sapiens)",
    "answer.label": "y"
  },
  {
    "compound": "C[C@]12CC[C@@H]3c4ccc(O)cc4C[C@@H](CCCCCCCCCS(=O)CCCC(F)(F)C(F)(F)F)[C@H]3[C@@H]1CC[C@@H]2O (stereo not given in full)",
    "target.or.system": "Bile acid receptor (Homo sapiens)",
    "answer.label": "n"
  },
  {
    "compound": "O=C(Nc1ccc([N+](=O)[O-])cc1Cl)c1cc(Cl)ccc1O",
    "target.or.system": "Bile acid receptor (Homo sapiens)",
    "answer.label": "y"
  }
]

Turning to the following compound.
Given CCCCOC(=O)C(C)Oc1ccc(Oc2ccc(C(F)(F)F)cn2)cc1 (stereo not given) , state the outcome it received in this test.
n

###

- Read-out: Interleukin-8 (IL8), CXCL8 (gene 3576)
- test.protocol: BSK_SAg_IL8: BioMAP Diversity Plus: SAg Assay for Interleukin-8 (IL8) Biomarker Activity (AID 2283094)
- condition.notes: primary human HUVEC with PBMC; actives raise or lower the signal
The source made the active and inactive calls. Rule for the calls: active = hit-call score of the fitted dose curve at least 0.9, where 1 is the maximum; inactive = score below 0.9.
Output constraint: value belongs to true (1) for active, false (0) for inactive

Please review the following examples before continuing.
[
  {
    "compound": "COC(=O)c1ccccc1C(=O)O",
    "answer.label": "false (0)"
  },
  {
    "compound": "CCCCC(CC)CN1C(=O)C2C3C=CC(C3)C2C1=O (configuration not stated)",
    "answer.label": "false (0)"
  },
  {
    "compound": "O=C(O)C1(C(=O)Nc2ccc(Cl)cc2Cl)CC1",
    "answer.label": "false (0)"
  },
  {
    "compound": "Oc1ccc(C(c2ccc(O)cc2)C(Cl)(Cl)Cl)cc1",
    "answer.label": "true (1)"
  },
  {
    "compound": "COc1c(Cl)ccc(Cl)c1C(=O)O",
    "answer.label": "false (0)"
  },
  {
    "compound": "S=C([S-])NCCNC(=S)[S-].[Mn+2]",
    "answer.label": "true (1)"
  }
]

Turning to the following compound.
Given COC(=O)c1ccc(I)cc1S(=O)(=O)NC(=O)Nc1nc(C)nc(OC)n1 , state the outcome it received in this test.
false (0)

###

- Read-out: MYC, MYC (gene 4609)
- test.protocol: LTEA_HepaRG_MYC: Life Technologies and Expression Analysis (LTEA) Assay for MYC using HepaRG (AID 2283518)
- condition.notes: mRNA level, 48 h; actives raise or lower the signal
The source made the active and inactive calls. How the source made its calls: active means hit-call score of the fitted dose curve at least 0.9, where 1 is the maximum; inactive means score below 0.9.
Output constraint: value belongs to active, inactive

[
  {
    "compound": "CCOC(=O)NCCOc1ccc(Oc2ccccc2)cc1",
    "answer.label": "active"
  }
]

Given COCCO , state the outcome it received in this test.
inactive

Given c1ccc(Nc2ccccc2)cc1 , state the outcome it received in this test.
inactive

Given C#C[C@]1(O)CC[C@H]2[C@@H]3CCC4=CC(=O)CC[C@@H]4[C@H]3CC[C@@]21CC , state the outcome it received in this test.
inactive

Given CCC(C)OC(=O)N1CCCCC1CCO (stereo not given) , state the outcome it received in this test.
inactive

###

- target.or.system: mouse Peroxisome Proliferator-activated Receptor gamma (PPARg), Pparg (gene 19016)
- test.protocol: ATG_mPPARg_XSP1: Attagene TRANS-FACTORIAL Multi-Species (XSP1) HepG2 Assay for mouse Peroxisome Proliferator-activated Receptor gamma (PPARg) (AID 2283802)
Records with an inconclusive call do not appear. The source made the active and inactive calls. Rule for the calls: active = hit-call score of the fitted dose curve at least 0.9, where 1 is the maximum; inconclusive = response in the unintended direction; inactive = score below 0.9.
property.label: AC50

Check out these entries, answers already filled in.
[
  {
    "compound": "CC(C)(c1ccc(O)cc1)c1ccc(O)cc1",
    "observed": "inactive"
  },
  {
    "compound": "O=C(c1ccc(O)cc1O)c1ccc(O)cc1O",
    "observed": "inactive"
  },
  {
    "compound": "CC(C)CCCCCCc1ccc(O)cc1",
    "observed": "15.9 µM (active)"
  },
  {
    "compound": "Oc1ccc(C(c2ccc(O)cc2)C(Cl)(Cl)Cl)cc1",
    "observed": "inactive"
  }
]

Items follow; give AC50 for each.
1. CCCCC(CC)COC(=O)c1ccccc1C(=O)O (stereo unspecified)
2. CCCCC(CC)CN1C(=O)C2C3C=CC(C3)C2C1=O (stereo unspecified)

["13.2 µM (active)", "27.7 µM (active)"]

###

- Read-out: Tumor necrosis factor (Homo sapiens) (UniProt P01375)
- Sequence (P01375 whole entry, looked up): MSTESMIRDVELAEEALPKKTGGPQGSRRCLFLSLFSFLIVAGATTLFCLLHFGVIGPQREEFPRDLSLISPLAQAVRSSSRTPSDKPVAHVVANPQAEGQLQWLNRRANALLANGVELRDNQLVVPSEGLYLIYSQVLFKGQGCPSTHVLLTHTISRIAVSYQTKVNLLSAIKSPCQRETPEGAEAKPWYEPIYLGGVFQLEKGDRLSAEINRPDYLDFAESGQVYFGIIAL
- test.protocol: BSK_LPS_TNFa: BioMAP Diversity Plus: LPS Assay for Tumour Necrosis Factor alpha (TNFa) Biomarker Activity (AID 2283085);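 for AC50: TNFa protein level quantified by ELISA in the co-culture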
- condition.notes: primary human HUVEC with PBMC; actives raise or lower the signal
Active and inactive are the calls of the source. Rule for the calls: active = hit-call score of the fitted dose curve at least 0.9, where 1 is the maximum; inactive = score below 0.9.
property.label: AC50

[
  {
    "compound": "COC(=O)c1c(Cl)nn(C)c1S(=O)(=O)NC(=O)Nc1nc(OC)cc(OC)n1",
    "AC50": "inactive"
  },
  {
    "compound": "O=C(Nc1ccc([N+](=O)[O-])cc1Cl)c1cc(Cl)ccc1O",
    "AC50": "0.583 µM (active)"
  },
  {
    "compound": "CCOC(=O)c1ccc(O)cc1",
    "AC50": "inactive"
  },
  {
    "compound": "Oc1ccc(C(c2ccc(O)cc2)C(Cl)(Cl)Cl)cc1",
    "AC50": "4.66 µM (active)"
  },
  {
    "compound": "CCOC(=O)C(C)Oc1ccc(Oc2cnc3cc(Cl)ccc3n2)cc1 (centres undefined)",
    "AC50": "inactive"
  },
  {
    "compound": "COC(=O)c1ccccc1S(=O)(=O)NC(=O)Nc1nc(OC(F)F)cc(OC(F)F)n1",
    "AC50": "12 µM (active)"
  },
  {
    "compound": "COC(=O)c1cccc(C)c1S(=O)(=O)NC(=O)Nc1nc(OCC(F)(F)F)nc(N(C)C)n1",
    "AC50": "inactive"
  },
  {
    "compound": "COc1c(Cl)ccc(Cl)c1C(=O)O",
    "AC50": "inactive"
  }
]

Items follow; give AC50 for each.
1. CSC(=O)c1cccc2nnsc12
2. CCCCOCCOCCOCc1cc2c(cc1CCC)OCO2

4.96 µM (active)
25.3 µM (active)

Items follow; give AC50 for each.
1. CCCCC(CC)CN1C(=O)C2C3C=CC(C3)C2C1=O (centres undefined)
2. CCOC(=O)[C@H](C)Oc1ccc(Oc2nc3ccc(Cl)cc3o2)cc1
3. CCSC(=O)N(CC(C)C)CC(C)C
4. CCCN(CCC)c1c([N+](=O)[O-])cc(C(F)(F)F)c(N)c1[N+](=O)[O-]

1. 0.237 µM (active)
2. inactive
3. inactive
4. 30.2 µM (active)
